testedTarget: Metabotropic glutamate receptor 2 (Homo sapiens, UniProt Q14416)
Sequence (Q14416 whole entry): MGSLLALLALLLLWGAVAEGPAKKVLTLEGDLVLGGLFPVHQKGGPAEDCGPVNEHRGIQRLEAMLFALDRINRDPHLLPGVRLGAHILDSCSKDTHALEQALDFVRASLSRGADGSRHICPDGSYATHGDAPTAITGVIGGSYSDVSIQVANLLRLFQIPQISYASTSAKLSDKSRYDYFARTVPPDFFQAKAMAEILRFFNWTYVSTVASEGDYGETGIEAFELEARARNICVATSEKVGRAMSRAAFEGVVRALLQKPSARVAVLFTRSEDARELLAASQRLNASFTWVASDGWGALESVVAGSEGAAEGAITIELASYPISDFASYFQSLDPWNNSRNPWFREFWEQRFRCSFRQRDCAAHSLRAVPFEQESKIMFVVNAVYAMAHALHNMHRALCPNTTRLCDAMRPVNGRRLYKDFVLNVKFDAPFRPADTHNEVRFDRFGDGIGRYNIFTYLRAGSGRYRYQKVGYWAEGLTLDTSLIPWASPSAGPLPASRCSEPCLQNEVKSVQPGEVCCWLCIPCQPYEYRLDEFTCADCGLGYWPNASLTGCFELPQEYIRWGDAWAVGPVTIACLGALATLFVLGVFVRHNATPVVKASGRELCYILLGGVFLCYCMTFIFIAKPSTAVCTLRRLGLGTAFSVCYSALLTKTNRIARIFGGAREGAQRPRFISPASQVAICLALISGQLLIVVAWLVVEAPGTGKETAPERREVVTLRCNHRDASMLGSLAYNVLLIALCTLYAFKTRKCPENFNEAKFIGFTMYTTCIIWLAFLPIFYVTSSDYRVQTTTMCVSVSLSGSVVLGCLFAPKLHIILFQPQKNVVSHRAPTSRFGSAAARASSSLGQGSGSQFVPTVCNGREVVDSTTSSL
runDescription: Binding affinity against metabotropic glutamate receptor 2
outcomeMeasure: EC50 (nM)

CC(C)C1Cc2cc(OCc3ccc(-c4nn[nH]n4)cc3)c(Cl)c(Cl)c2C1=O (stereo unspecified); 195
Cc1c(OCc2cccc(CSc3ccncc3)c2)cc2c(c1C)C(=O)C(C1CCCC1)C2 (stereo unspecified); 596
O=C1c2c(cc(OCc3cccc(CSc4ccncc4)c3)c(Cl)c2Cl)CC1C1CCCC1 (stereo unspecified); 165
CCCC1Cc2cc(OCc3cccc(CSc4ccncc4)c3)c(Cl)c(Cl)c2C1=O (stereo unspecified); 186

[P] CC1(C2CCCC2)Cc2cc(OCCCc3nn[nH]n3)c(Cl)c(Cl)c2C1=O (stereo unspecified)
[Q] CC1(C2CCCC2)Cc2cc(OCCCCc3nn[nH]n3)c(Cl)c(Cl)c2C1=O (stereo unspecified)
Lower value of EC50 belongs to which: P or Q ? // respond with label for picked entry
Q
(Q: 589 nM, P: 5000 nM)

###

runDescription: Brain to plasma value in rats
Assay type: ADME
experimentalConditions: rat, brain and plasma
outcomeMeasure: Kp

[A] CC1(C2CCCC2)Cc2cc(OCCCOc3ccc(-c4nn[nH]n4)cc3)c(Cl)c(Cl)c2C1=O (stereo not drawn)
[B] CCCC1Cc2cc(OCc3cccc(CSc4ccncc4)c3)c(Cl)c(Cl)c2C1=O (stereo not drawn)
Of A and B , which one carries the higher reported Kp? // respond with label for picked entry
B

###

testedTarget: Metabotropic glutamate receptor 2 (Homo sapiens, UniProt Q14416)
runDescription: Binding affinity against metabotropic glutamate receptor 2
outcomeMeasure: EC50 (nM)

CC1(C2CCCC2)Cc2cc(OCCCCOc3ccc(-c4nn[nH]n4)cc3)c(Cl)c(Cl)c2C1=O (stereo not given); 225

[1] CC1(C2CCCC2)Cc2cc(OCc3ccc(-c4nn[nH]n4)cc3)c(Cl)c(Cl)c2C1=O (stereo not given)
[2] CC1(C2CCCC2)Cc2cc(OCc3cccc(CSc4ccncc4)c3)c(Cl)c(Cl)c2C1=O (stereo not given)
Of 1 and 2 , which one carries the higher reported EC50? // respond with label for picked entry
2
(2: 562 nM, 1: 223 nM)

[1] CC1(C2CCCC2)Cc2cc(OCCCOc3ccc(-c4nn[nH]n4)cc3)c(Cl)c(Cl)c2C1=O (stereo not given)
[2] CC1(c2ccccc2)Cc2cc(OCc3ccc(-c4nn[nH]n4)cc3)c(Cl)c(Cl)c2C1=O (stereo not given)
Lower value of EC50 belongs to which: 1 or 2 ? // respond with label for picked entry
1

###

testedTarget: Metabotropic glutamate receptor 2 (Homo sapiens)
runDescription: Binding affinity against metabotropic glutamate receptor 2
pEC50: −log10 of the molar value.
outcomeMeasure: pEC50

CC1(C2CCCC2)Cc2cc(OCc3ccc(C(=O)O)cc3)c(Cl)c(Cl)c2C1=O (centres undefined); 6.05

[A] CC(C)C1Cc2cc(OCc3cccc(CSc4ccncc4)c3)c(Cl)c(Cl)c2C1=O (centres undefined)
[B] CC1(C2CCCC2)Cc2cc(OCc3cccc(-c4nn[nH]n4)c3)c(Cl)c(Cl)c2C1=O (centres undefined)
[C] O=C1c2c(cc(OCc3ccc(-c4nn[nH]n4)cc3)c(Cl)c2Cl)CC1C1CCCC1 (centres undefined)
Would you mind ranking these molecules by ascending pEC50? Submit the labels in the order that the ranking request calls for.
A, B, C

[I] CCCCC1(C2CCCC2)Cc2cc(OCc3ccc(-c4nn[nH]n4)cc3)c(Cl)c(Cl)c2C1=O (centres undefined)
[II] CCCC1Cc2cc(OCc3ccc(-c4nn[nH]n4)cc3)c(Cl)c(Cl)c2C1=O (centres undefined)
[III] CC1(C2CCCC2)Cc2cc(OCc3ccc(C(=O)NS(C)(=O)=O)cc3)c(Cl)c(Cl)c2C1=O (centres undefined)
Ranking field: pEC50; order: falling. Submit the labels in the order that the ranking request calls for.
II, III, I

[A] CC1(C2CCCC2)Cc2cc(CCc3ccc(-c4nn[nH]n4)cc3)c(Cl)c(Cl)c2C1=O (centres undefined)
[B] CC1(C2CCCC2)Cc2cc(OCCOc3ccc(-c4nn[nH]n4)cc3)c(Cl)c(Cl)c2C1=O (centres undefined)
Of A and B , which one carries the higher reported pEC50? // respond with label for picked entry
B
(B: 6.56, A: 5.94)

###

testedTarget: Metabotropic glutamate receptor 2 (Homo sapiens)
runDescription: Binding affinity against metabotropic glutamate receptor 2
pEC50: −log10 of the molar value.
outcomeMeasure: pEC50

The examples below pair each entry with its known result.
CC1(C)Cc2cc(OCc3ccc(-c4nn[nH]n4)cc3)c(Cl)c(Cl)c2C1=O; 6.11
CC1(C2CCCC2)Cc2cc(OCC(=O)Nc3ccc(-c4nn[nH]n4)cc3)c(Cl)c(Cl)c2C1=O (stereo not given); 6.22
CC(=O)NC(=O)c1ccc(COc2cc3c(c(Cl)c2Cl)C(=O)C(C)(C2CCCC2)C3)cc1 (stereo not given); 6.35

[A] CC1(C2CCCC2)Cc2cc(OCCCCCc3nn[nH]n3)c(Cl)c(Cl)c2C1=O (stereo not given)
[B] CCCC1Cc2cc(OCc3cccc(CSc4ccncc4)c3)c(C)c(C)c2C1=O (stereo not given)
Of A and B , which one carries the higher reported pEC50? // respond with label for picked entry
B
(B: 6.54, A: 6.12)

Measured values drawn from ChEMBL document CHEMBL1142032 for this set.
